Parameter SLAD: see the listing below.
- test_summary: Solubility limited absorbable dose (SLAD) calculation with predicted human jejunal Peff
- condition_info: Ssi × V (500 mL) × Mp
outcome_measure: SLAD (mg)

>>> numeric_value("C[C@H]1[C@H](N2CCS(=O)(=O)CC2)O[C@@H]2O[C@@]3(C)CC[C@H]4[C@H](C)CC[C@@H]1[C@@]24OO3 [Artemisone]")
345
>>> numeric_value("Cc1cc(Nc2ccc(S(F)(F)(F)(F)F)cc2)n2nc(C(C)(F)F)nc2n1 [DSM265]")
14
>>> numeric_value("N#Cc1cc(NC(=O)[C@H]2c3ccccc3C(=O)N(CC(F)(F)F)[C@@H]2c2cccnc2)ccc1F [SJ733]")
109
>>> numeric_value("COc1ncnc(NS(=O)(=O)c2ccc(N)cc2)c1OC [Sulfadoxine]")
959
